TARGET OF ASSAY: JAK1 kinase (Homo sapiens)
Construct: purchased Carna 08-144
Sequence (P23458 whole entry): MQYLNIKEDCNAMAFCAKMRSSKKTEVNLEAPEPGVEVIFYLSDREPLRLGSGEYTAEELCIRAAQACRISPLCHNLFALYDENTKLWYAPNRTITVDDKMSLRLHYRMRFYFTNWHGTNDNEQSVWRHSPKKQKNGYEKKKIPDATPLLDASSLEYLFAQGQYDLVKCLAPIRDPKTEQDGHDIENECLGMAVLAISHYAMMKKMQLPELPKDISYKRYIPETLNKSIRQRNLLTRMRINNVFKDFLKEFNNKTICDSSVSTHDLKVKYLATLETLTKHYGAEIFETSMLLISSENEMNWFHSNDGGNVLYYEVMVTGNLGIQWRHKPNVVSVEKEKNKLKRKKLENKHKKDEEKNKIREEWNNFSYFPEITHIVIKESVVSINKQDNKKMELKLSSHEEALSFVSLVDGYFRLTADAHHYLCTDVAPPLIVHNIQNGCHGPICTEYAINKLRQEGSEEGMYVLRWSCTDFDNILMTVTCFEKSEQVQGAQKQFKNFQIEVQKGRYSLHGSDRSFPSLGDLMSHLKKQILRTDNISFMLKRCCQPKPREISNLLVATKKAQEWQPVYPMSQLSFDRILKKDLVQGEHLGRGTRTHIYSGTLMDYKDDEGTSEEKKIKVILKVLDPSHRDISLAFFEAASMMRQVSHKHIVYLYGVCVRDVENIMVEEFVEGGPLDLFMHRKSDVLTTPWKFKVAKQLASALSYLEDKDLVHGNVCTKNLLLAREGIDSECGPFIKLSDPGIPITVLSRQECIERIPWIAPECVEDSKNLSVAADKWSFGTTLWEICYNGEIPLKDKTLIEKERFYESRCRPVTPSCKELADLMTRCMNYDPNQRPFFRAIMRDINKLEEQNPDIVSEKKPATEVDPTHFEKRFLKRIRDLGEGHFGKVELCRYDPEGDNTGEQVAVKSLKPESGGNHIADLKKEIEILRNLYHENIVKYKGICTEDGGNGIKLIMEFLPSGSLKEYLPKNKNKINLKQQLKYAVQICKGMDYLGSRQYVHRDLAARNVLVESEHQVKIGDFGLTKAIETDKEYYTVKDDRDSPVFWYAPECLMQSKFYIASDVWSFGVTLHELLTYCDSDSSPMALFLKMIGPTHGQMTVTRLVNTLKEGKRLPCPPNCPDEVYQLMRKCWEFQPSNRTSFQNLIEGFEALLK
ASSAY REMARKS: IC50 evaluation assay on JAK1 kinase inhibition (Caliper)
Type: biochemical
SETTINGS: adenosine triphosphate at Km; 1 hour at 28° C.; average of two tests; read-out: IC50 (nM) inhibiting JAK 1 kinase
IC50 strictly less than 10 nM = T. Otherwise F.

Recorded results for 5 compounds are shown here.
| COMPOUND | CLASS ASSIGNMENT |
| --- | --- |
| COc1ccccc1-c1c(C)sc2cnc(Nc3cnn(C4CCNCC4)c3)nc12 [Compound 35] | T |
| COc1ncccc1-c1c(C)sc2cnc(Nc3cnn(C)c3)nc12 [Compound 43] | T |
| Cc1sc2cnc(Nc3cnn(C4CCN(C(=O)CO)CC4)c3)nc2c1-c1cccc2c1OCC2 [Compound 36] | F |
| Cc1sc2cnc(Nc3cnn(C)c3)nc2c1-c1ccccc1N(C)C [Compound 41] | F |
| COc1ccc(-c2c(C)sc3cnc(Nc4cnn(C)c4)nc23)c(OC)c1 [Compound 7] | F |

Input line: IC50 under 10 nM? Item: COc1cc(OCC(=O)N2CCC2)ccc1-c1c(C)sc2cnc(Nc3cnn(C)c3)nc12 [Compound 23]
Output line: T
